Source: ChEMBL document CHEMBL5244262

tested on: Hepatitis B virus; assay: Antiviral activity against Hepatitis B virus infected in HePAD38 cells assessed as reduction in HBeAg production; assay type: functional, organism-based
endpoint_name: IC50

Fill blank: measured IC50 of the compound C#CCNC(=O)C(=O)c1c(C)c(C(=O)Nc2ccc(F)c(F)c2)n(C)c1C is ____.
3 nM

----------
assay: Oral bioavailability in mouse; format: ADME, organism-based; settings: in vivo
endpoint_name: bioavailability

Fill blank: measured bioavailability of the compound O=C(Nc1cc(F)c(F)c(F)c1)c1ccc(F)c(S(=O)(=O)N2CCC(O)CC2)c1 is ____.
≥ 84.6%

----------
system: Hepatitis B virus; test: Antiviral activity against Hepatitis B virus infected in HepDES19 cells; format: functional, organism-based
endpoint_name: pIC50
// field semantics: pIC50 = negative decimal log of concentration (mol/L)

Enter reported pIC50 observed with Hepatitis B virus for CCC(C)NS(=O)(=O)c1ccc(F)c(C(=O)Nc2ccc(F)c(F)c2)c1 (stereo unspecified)
7.00

----------
test: Selectivity index, ratio of CC50 for human HePAD38 cells to EC50 for antiviral activity against Hepatitis B virus infected in HePAD38 cells; format: toxicity, cell-based; details: read-out: Ratio CC50/EC50
Form field: selectivity ratio (one value per entry).

Here are 6 compounds together with their reported answers.
Fill blank: measured selectivity ratio of the compound O=C(Nc1cc(F)c(F)c(F)c1)c1ccc(F)c(S(=O)(=O)NC2CCC(O)CC2)c1 (stereo not drawn) is ____.
42.7

Fill blank: measured selectivity ratio of the compound O=C(Nc1cc(F)c(F)c(F)c1)c1ccc(F)c(S(=O)(=O)N2CCC(=NO)CC2)c1 is ____.
35.3

Fill blank: measured selectivity ratio of the compound O=C(Nc1cc(F)c(F)c(F)c1)c1ccc(F)c(S(=O)(=O)N2CC3CC(O)CC3C2)c1 (stereo not drawn) is ____.
74.1

Fill blank: measured selectivity ratio of the compound O=C(Nc1cc(F)c(F)c(F)c1)c1ccc(F)c(S(=O)(=O)N2C[C@H]3CC[C@@H]2CC3=O)c1 is ____.
33.7

Fill blank: measured selectivity ratio of the compound O=C1CCN(S(=O)(=O)c2cc(C(=O)Nc3cc(F)c(F)c(F)c3)ccc2F)CC1 is ____.
24.7

Fill blank: measured selectivity ratio of the compound O=C(Nc1cc(F)c(F)c(F)c1)c1ccc(F)c(S(=O)(=O)N2C[C@H]3CC[C@@H]2CC3O)c1 (stereo partly drawn) is ____.
30.5

New cases:
Fill blank: measured selectivity ratio of the compound O=C1CC2CN(S(=O)(=O)c3cc(C(=O)Nc4cc(F)c(F)c(F)c4)ccc3F)CC2C1 (stereo not drawn) is ____.
48

Fill blank: measured selectivity ratio of the compound O=C(Nc1cc(F)c(F)c(F)c1)c1ccc(F)c(S(=O)(=O)N2CCC(O)CC2)c1 is ____.
15.6

----------
experiment: Cytotoxicity against human HepDES19 cells; assay type: toxicity, cell-based
endpoint_name: CC50

Fill blank: measured CC50 of the compound CCC(C)NS(=O)(=O)c1ccc(F)c(C(=O)Nc2ccc(F)c(F)c2)c1 (stereo unspecified) is ____.
> 50 µM

----------
test: Cytotoxicity against human HepBHAe82 cells; format: toxicity, cell-based
endpoint_name: CC50

Fill blank: measured CC50 of the molecule CC[C@@H](C)NS(=O)(=O)c1ccc(F)c(C(=O)Nc2ccc(F)c(F)c2)c1 is ____.
> 10 µM
